Positions of bridges follow the written chain, without caps; N, C: chain ends. Non-standard residues stand in square brackets, D forms with d. Residues, ends and D or L forms follow the SMILES beside them. Asu = N[C@@H](CCCCCC(=O)O)C(=O)O
Ki tested on UniProt P35346: recorded values
Sequence (P35346 whole entry): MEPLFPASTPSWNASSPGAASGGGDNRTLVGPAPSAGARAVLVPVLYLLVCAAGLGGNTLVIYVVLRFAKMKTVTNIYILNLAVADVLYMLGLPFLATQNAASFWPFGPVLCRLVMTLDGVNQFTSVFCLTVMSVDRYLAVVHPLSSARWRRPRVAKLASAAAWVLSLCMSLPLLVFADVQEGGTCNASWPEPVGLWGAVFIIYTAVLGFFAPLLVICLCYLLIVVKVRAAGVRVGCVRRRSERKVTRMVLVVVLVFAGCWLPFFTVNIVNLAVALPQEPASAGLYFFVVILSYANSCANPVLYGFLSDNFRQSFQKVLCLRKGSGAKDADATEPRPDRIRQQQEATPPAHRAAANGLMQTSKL
observable: Ki (µM)

>>> measurement("C[C@@H](O)[C@@H]1NC(=O)[C@H](Cc2ccc(O)cc2)NC(=O)[C@H]([C@@H](C)O)NC(=O)[C@H](CCCCN)NC(=O)[C@H](Cc2c[nH]c3ccccc23)NC(=O)[C@H](Cc2ccccc2)NC(=O)[C@H](Cc2ccccc2)NC(=O)[C@H](CC(N)=O)NC(=O)[C@H](CCCCN)NC(=O)CCCCC[C@@H](C(=O)O)NC(=O)[C@H](CO)NC1=O [CGP-23996] (KNFFWKTYTS[Asu]-OH; lactam N-11)")
0.00251
>>> measurement("C[C@@H](O)[C@@H]1NC(=O)[C@H](CCCCN)NC(=O)[C@@H](Cc2c[nH]c3ccccc23)NC(=O)[C@H](Cc2ccccc2)NC(=O)[C@@H]2CCCN2C(=O)[C@H](Cc2ccccc2)NC1=O (cyclo(PF[dW]KTF))")
0.0398

###

This document collects Ki values reported for Somatostatin receptor type 2 (Homo sapiens, UniProt P30874).
Positions of bridges follow the written chain, without caps; N, C: chain ends. Non-standard residues stand in square brackets, D forms with d. Residues, ends and D or L forms follow the SMILES beside them. d1Nal = N[C@H](Cc1cccc2ccccc12)C(=O)O; Nphe = O=C(O)CNCc1ccccc1; Ahp = NCCCCCCC(=O)O
observable: Ki

>>> measurement("CC(C)[C@@H]1NC(=O)[C@H](CCCCN)NC(=O)[C@@H](Cc2c[nH]c3ccccc23)NC(=O)[C@H](Cc2ccc(O)cc2)NC(=O)[C@@H](NC(=O)[C@H](N)Cc2ccc3ccccc3c2)CSSC[C@@H](C(=O)N[C@H](C(N)=O)[C@@H](C)O)NC1=O")
"0.5 nM"
>>> measurement("C[C@@H](O)[C@@H]1NC(=O)[C@H](CCCCN)NC(=O)[C@@H](Cc2c[nH]c3ccccc23)NC(=O)[C@H](Cc2ccccc2)NC(=O)[C@@H]2CCCN2C(=O)[C@H](Cc2ccccc2)NC1=O (cyclo(PF[dW]KTF))")
"0.63 nM"
>>> measurement("CC(C)[C@H](NC(=O)[C@H](CCCCN)NC(=O)[C@@H](Cc1c[nH]c2ccccc12)NC(=O)[C@H](Cc1ccc(O)cc1)NC(=O)[C@H](Cc1ccccc1)NC(=O)[C@H](N)Cc1ccccc1)C(=O)N[C@@H](Cc1ccccc1)C(=O)N[C@H](Cc1cccc2ccccc12)C(N)=O [BIM 23056] (H-[dF]FY[dW]KVF[d1Nal]-NH2)")
"200 nM"
>>> measurement("C[C@@H](O)[C@@H]1NC(=O)[C@H](CCCCN)NC(=O)[C@@H](Cc2c[nH]c3ccccc23)NC(=O)[C@H](Cc2c[nH]c3ccccc23)NC(=O)[C@H](Cc2ccccc2)NC(=O)CCCCCCNC(=O)[C@H](Cc2ccccc2)NC1=O [L-362855] (cyclo([Ahp]FW[dW]KTF))")
"0.79 nM"
>>> measurement("CC(=O)N(CC(=O)NC1CSSCC(C(=O)NC(Cc2c[nH]c3ccccc23)C(N)=O)NC(=O)C(C(C)C)NC(=O)C(CCCCN)NC(=O)C(Cc2c[nH]c3ccccc23)NC(=O)C(Cc2ccc(O)cc2)NC1=O)Cc1ccccc1 (stereo unspecified) [RC 160II] (Ac-[Nphe]CYWKVCW-NH2; disulfide 2-7; configuration not given here)")
"1.58 nM"
>>> measurement("CC(C)[C@@H]1NC(=O)[C@H](CCCCN)NC(=O)[C@@H](Cc2c[nH]c3ccccc23)NC(=O)[C@H](Cc2ccc(O)cc2)NC(=O)[C@@H](NC(=O)[C@H](N)Cc2ccccc2)CSSC[C@@H](C(=O)N[C@@H](Cc2c[nH]c3ccccc23)C(N)=O)NC1=O [CAS_71306] (H-[dF]CY[dW]KVCW-NH2; disulfide 2-7)")
"0.07 nM"

Sourced from BindingDB's records for doi:10.1016/s0026-0495(96)90072-4
